Test system: Aphis gossypiae
Assay: Aphicidal activity, aphid-dip
Format: in vivo
Conditions: strain 81-171B, read-out: Aphid-dip result, % kill A.G. 81-171B
Give T when the value for mortality at 100 ppm is at least 80%. Give F when it is less.

A selection of reference data follows.
structure.smiles	assigned.label
C[Si](C)(C)CCCCCCCCC1=C(O)C(=O)c2ccccc2C1=O	T
C[Si](C)(C)CCCCCCC1=C(O)C(=O)c2ccccc2C1=O	F
C[Si](C)(C)CCC1=C(O)C(=O)c2ccccc2C1=O	F

Query block: State whether the measured mortality at 100 ppm reaches 80%, counting equality as reaching it, for `C[Si](C)(C)CCCCCCCCCCC1=C(O)C(=O)c2ccccc2C1=O`
Result block: T

Query block: Dear colleague, could you confirm whether `C[Si](C)(C)CCCCCCCCCC1=C(O)C(=O)c2ccccc2C1=O` has mortality at 100 ppm at or above 80%?
Result block: T

Query block: Has `C[Si](C)(C)CCCCCCCC1=C(O)C(=O)c2ccccc2C1=O` a recorded mortality at 100 ppm greater than or equal to 80%?
Result block: T

Query block: Quick check: does `C[Si](C)(C)CCCCCC1=C(O)C(=O)c2ccccc2C1=O` have mortality at 100 ppm greater than or equal to 80%?
Result block: T

Query block: Please check the record `C[Si](C)(C)CCCC1=C(O)C(=O)c2ccccc2C1=O` and state if its mortality at 100 ppm is at or above 80%.
Result block: F

----------
Measured mortality at 100 ppm of individual entries
System: Myzus persicae
Test: Aphicidal activity, aphid-dip
Assay type: in vivo
Conditions: resistant strain 794JZ, read-out: Aphid-dip result, % kill M.P. 794JZ
Method: Activity against resistant (R) and susceptible (S) strains of aphid (Myzus persicae) and Aphis gossypiae was assessed using the following two methods. […] Tubes containing aphids were dipped into insecticide solutions for 10 seconds, dried on blotting paper, and then inverted and tapped to cause treated aphids to fall to the unimmersed end of each tube. […] Mortality was assessed at 24, 48 and 72 hours. […]

compound	test.system	mortality at 100 ppm
CC(=O)OC1=C(CC[Si](C)(C)C)C(=O)c2ccccc2C1=O [Example 4]	Myzus persicae	19%
C[Si](C)(C)CCCCC1=C(O)C(=O)c2ccccc2C1=O [Example 8]	Myzus persicae	100%
C[Si](C)(C)CCC1=C(O)C(=O)c2ccccc2C1=O [Example 2]	Myzus persicae	54%

With those in mind, consider the next compound.
Query block: For C[Si](C)(C)CCCCCCCCCC1=C(O)C(=O)c2ccccc2C1=O [Example 12] , write its mortality at 100 ppm.
Result block: 61%

----------
Test system: Myzus persicae
Assay: Aphicidal activity, aphid-dip
Type: in vivo
Details: susceptible strain USIL, read-out: Aphid-dip result, % kill M.P. USIL
Here the recorded mortality at 100 ppm is given for each entry.
Use % as the unit, but write only the number.

Illustrative cases are given below, each with its answer.
structure.smiles	test.value
C[Si](C)(C)CCCCCCCCCCC1=C(O)C(=O)c2ccccc2C1=O	90
C[Si](C)(C)CCCC1=C(O)C(=O)c2ccccc2C1=O	90

Shift focus to the following entry.
Query block: Consider the molecule `C[Si](C)(C)CCCCC1=C(O)C(=O)c2ccccc2C1=O` tested on Myzus persicae; state its mortality at 100 ppm.
Result block: 90

# credit: patent US6162799A
